Details: human, in vivo, iv, 0.9 mg, M1 mean Cmax
Starred links: 1 amine or outer side, 2 acyl side, 3 side chain; linkers in the order of their positions; H or OH if unused. Positions of bridges follow the written chain, without caps; N, C: chain ends. Non-standard residues stand in square brackets, D forms with d. Residues, ends and D or L forms follow the SMILES beside them. Groups on a side chain read outwards from the residue. *: point of attachment. X1 = CC(=O)NCCCC[C@H](NC(=O)CC[C@H](N)C(N)=O)C(=O)*; εLys = N[C@@H](CCCCN[*:1])C(=O)[*:2]; Dab = NCC[C@H](N)C(=O)O
parameter_measured: Cmax

Input CC[C@H](C)[C@@H]1NC(=O)[C@H](Cc2ccccc2)NC(=O)[C@@H](N)CSSC[C@@H](C(=O)N2CCC[C@H]2C(=O)N[C@@H](CCNC(=O)[C@@H](N)CCCCNC(=O)[C@H](CCCCNC(C)=O)NC(=O)CC[C@H](N)C(N)=O)C(=O)NCC(N)=O)NC(=O)[C@H](CC(N)=O)NC(=O)[C@H](CCC(N)=O)NC1=O [Compound M1] (H-CFIQNCP[Dab]([εLys-X1])G-NH2; disulfide 1-6) . Output Cmax: 0.1 to 0.25 ng/mL

---

Settings: human, in vivo, sc, 0.3 mg, M1 t1/2, max
Starred links: 1 amine or outer side, 2 acyl side, 3 side chain; linkers in the order of their positions; H or OH if unused. Positions of bridges follow the written chain, without caps; N, C: chain ends. Non-standard residues stand in square brackets, D forms with d. Residues, ends and D or L forms follow the SMILES beside them. Groups on a side chain read outwards from the residue. *: point of attachment. X1 = CC(=O)NCCCC[C@H](NC(=O)CC[C@H](N)C(N)=O)C(=O)*; εLys = N[C@@H](CCCCN[*:1])C(=O)[*:2]; Dab = NCC[C@H](N)C(=O)O
parameter_measured: half-life
The answer should read as a number with its unit following.

Input CC[C@H](C)[C@@H]1NC(=O)[C@H](Cc2ccccc2)NC(=O)[C@@H](N)CSSC[C@@H](C(=O)N2CCC[C@H]2C(=O)N[C@@H](CCNC(=O)[C@@H](N)CCCCNC(=O)[C@H](CCCCNC(C)=O)NC(=O)CC[C@H](N)C(N)=O)C(=O)NCC(N)=O)NC(=O)[C@H](CC(N)=O)NC(=O)[C@H](CCC(N)=O)NC1=O [Compound M1] (H-CFIQNCP[Dab]([εLys-X1])G-NH2; disulfide 1-6) . Output half-life: 2.4 h

---

Conditions: human, in vivo, sc, 0.3 mg, M1 AUC, mean
Starred links: 1 amine or outer side, 2 acyl side, 3 side chain; linkers in the order of their positions; H or OH if unused. Positions of bridges follow the written chain, without caps; N, C: chain ends. Non-standard residues stand in square brackets, D forms with d. Residues, ends and D or L forms follow the SMILES beside them. Groups on a side chain read outwards from the residue. *: point of attachment. X1 = CC(=O)NCCCC[C@H](NC(=O)CC[C@H](N)C(N)=O)C(=O)*; εLys = N[C@@H](CCCCN[*:1])C(=O)[*:2]; Dab = NCC[C@H](N)C(=O)O
parameter_measured: AUC (ng·h/mL)
Numbers only, in ng·h/mL.

Input CC[C@H](C)[C@@H]1NC(=O)[C@H](Cc2ccccc2)NC(=O)[C@@H](N)CSSC[C@@H](C(=O)N2CCC[C@H]2C(=O)N[C@@H](CCNC(=O)[C@@H](N)CCCCNC(=O)[C@H](CCCCNC(C)=O)NC(=O)CC[C@H](N)C(N)=O)C(=O)NCC(N)=O)NC(=O)[C@H](CC(N)=O)NC(=O)[C@H](CCC(N)=O)NC1=O [Compound M1] (H-CFIQNCP[Dab]([εLys-X1])G-NH2; disulfide 1-6) . Output AUC: 7.55
